Biological target: SARS-CoV-2 wild-type spike (S) protein (SARS-CoV-2, WT (MN908947), UniProt P0DTC2)
MEASURED_QUANTITY: binding result

Some solved entries appear below for comparison.
# BINDER, binding result
rows = [
    ("XGV050 (antibody, V domains shown) VH: EVQLVESGGGLVQPGGSLRLSCAASGFTFSRYDMHWVRQAAGKGLEWVSGIGAPGDTYYAGSVKGRFTISRENAKTSLHLQMNNLRAGDTAVYYCTRGWFGENYMDVWGKGTTVTVSS VL: EIVLTQSPATLSLSPGERATLSCRASQSVSNHLAWFQQKPGQSPRLLIYDASNRATGIPARFSGSGSGTDFTLTISSLEPEDFAIYYCHQRSNWPTFGQGTKVEIK", "binds"),
    ("XGv285 (antibody, V domains shown) VH: QVQLVQSGAEVKKPGASMKVSCKASGYTFISYYMHWVRQAPGQELEWMGIINPSGGSTSYAQKFQGRVTMTRDTSTSTVYMELRSLRSEDTAVYYCARAEGSSWLGWFDPWGQGTLVTVSS VL: QSVLTQPPSASGTPGQRVTISCSGSSSNIGSNLVYWYQHLPGTAPKLLIYKNTQRPSGVPDRFSGSKSGTSASLAISGLRSDDEGDYYCAAWDDGLSGSGWVFGGGTKVT", "binds"),
    ("XGv402 (antibody, V domains shown) VH: QVQLVESGGGVVQPGRSLRLSCAASGFTFNNYAMHWVRQAPGKGLEWVAVISYDGSNEFYLDSVKGRFAISRDNSKNTLYLQTNSLRGEDTAVYYCARESRRGADYWGQGTLVTVSS VL: DIQMTQSPSSLSASVGDRVTITCRASQIISNYLNWYQQKPGKAPKLLIYAASSLQSGVPSRFSGSGSGTDFTLTISSLQPEDSATYYCQQSFSPLWTFGPGTKVEIK", "binds"),
    ("XGV042 (antibody, V domains shown) VH: QITLKESGPTLVKPTQTLTLTCTFSGLSMTTSGVGVGWIRQPPGKALEWLALIYWDDDKRYSPFLKSRLTITKDTSKNQVVLTMTNMDPADTGTYFCAHHTIPSIFDHWGQGTLVTVSS VL: QSALTQPASVSGSPGQSITISCTATSSDVGVYNYVSWYQQYPGKAPRLIIFEVSNRPSGVSSRFSGSKSGYTASLTISGLQTDDEADYYCSSYTTTSTVFGGGTKLTVL", "binds"),
]

--- query ---
Per the records, this binder ( XGv055 (antibody, V domains shown) VH: QVQLVQSGAEVKKPGSSVKVSCKASGGTFSSYALSWVRQAPGQGLEWMGGIIPIFGTTNYAQKFQGRVTITADESSSTAYMELSSLRSEDTAVYYCARLDGYSFGHNRYYQDGMDDWGQGTTVTVSS VL: DIQMTQSPSSLSASVGDRVTITCRASQGIRNDLGWYQQKPGKAPKCLIYAASTLQSGVPSRFSGSGSGTEFTLTISSLQPEDFATYYCLQQNIYPRTFGQGTKVEIK ) has binding result equal to binds
